Parameter viscosity: see the listing below.
Details: 298.15 K; 101 kPa; Liquid; Capillary tube (Ostwald / Ubbelohde) method
The reply should contain only the number, in mPa·s.

Previously resolved entries follow.
CCCCCC(C)O (centres undefined); 5.08
CCCCCCCCCC; 0.845
CCCCC(C)O (centres undefined); 4.105

Next:
Data request: Sample CCCCCCC(C)O (centres undefined) — what was its viscosity?
Data returned: 6.429

----------
Settings: 298.15 K; 101 kPa; Liquid; Pycnometric method
± gives the expanded uncertainty stated by the source.
Parameter mass density: see the listing below.

CCCCCCCCCC; 726.35 ± 1 kg/m3
CCCCC(C)O (centres undefined); 810.84 ± 1 kg/m3

Data request: Sample CCCCCC(C)O (centres undefined) — what was its mass density?
Data returned: 813.74 ± 1 kg/m3

Data request: How about this compound: CCCCCCC(C)O (centres undefined)
Data returned: 817.05 ± 1 kg/m3
